The entries below come with measured GI50 values attached.
- Test system: NCI/ADR-RES
- Assay text: NCI tumour cell line growth inhibition, 48 h
Calls of active or inactive are those of the source. Rule as the data show it: active = GI50 up to about 1.1 µM and inactive = higher.

Qu. Report GI50 for "CN(CCc1ccc(Br)cc1)CCN1CCCCC1" tested on NCI/ADR-RES.
Ans. 46.5 µM (inactive)

====

- Test system: SK-MEL-2
- Assay text: NCI tumour cell line growth inhibition, 48 h
Active and inactive are the calls of the source. Cut-off read from the data, not from the text of the source: active = GI50 up to about 1.1 µM and inactive = higher.
The entries below come with measured GI50 values attached.

molecule=COC(=O)c1cc2c(c(C(=O)OC)c1)CCC2 reported_metric=GI50 reading="> 100 µM (inactive)"
molecule="O=C1C2C3C4C1C1C2[C@H](OCc2ccccc2)C3C1[C@H]4OCc1ccccc1 (some centres undefined)" reported_metric=GI50 reading="51.2 µM (inactive)"
molecule="COc1cc([C@@H]2c3cc4c(cc3[C@@H](NCc3cccc(F)c3)C3COC(=O)[C@@H]32)OCO4)cc(OC)c1O (some centres undefined)" reported_metric=GI50 reading="12.9 µM (inactive)"
molecule=NC(=O)OCc1c(-c2ccccc2)nn(-c2ccccc2)c1COC(N)=O reported_metric=GI50 reading="> 100 µM (inactive)"
molecule=CCOc1cc(C=O)c2c(ccc3ccc(OC)c(OC)c32)c1OC reported_metric=GI50 reading="36.8 µM (inactive)"
molecule="O=C(CC1(O)C(=O)Nc2c(Cl)cccc21)c1ccccc1 (centres undefined)" reported_metric=GI50 reading="> 100 µM (inactive)"
molecule="CC(SC(=S)N1CCOCC1)C(=O)Nc1nnc(-c2ccccc2)o1 (centres undefined)" reported_metric=GI50 reading="> 100 µM (inactive)"
molecule=COc1cc(-c2cc(=O)c3c(O)c(OC)c(OC)c(OC)c3o2)cc(OC)c1OC reported_metric=GI50 reading="> 55.6 µM (inactive)"

Note: attention shifts to another entry.
Qu. Look at this molecule and give its reported GI50. "Cc1cc2cc3c(cc2c(-c2ccc(N)cc2)n1)OCO3"
Ans. 82.8 µM (inactive)
